# study system: T1, Human C5 (human, UniProt P01031 19-1676)
# T1 construct: The natural protein has a beta and an alpha chain; also called complement factor 5; complement component 5
# method summary: SPR, mAb captured by anti-hFc, 25C
Recorded t½ split into classes 0 (below 1 h), 1 (1 h to below 4 h), 2 (4 h or more)

H4H11686N (antibody, human IgG4, V domains shown, also called H2M11686N) VH: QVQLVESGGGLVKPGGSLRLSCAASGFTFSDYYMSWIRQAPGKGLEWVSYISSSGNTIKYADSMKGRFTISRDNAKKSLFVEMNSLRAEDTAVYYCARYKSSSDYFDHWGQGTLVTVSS VL: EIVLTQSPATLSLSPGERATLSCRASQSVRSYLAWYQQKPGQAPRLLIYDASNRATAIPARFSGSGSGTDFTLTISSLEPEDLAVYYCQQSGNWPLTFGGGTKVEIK	2

Shift focus to the following entry.
Just checking, what class would you give H4H11683N (antibody, human IgG4, V domains shown, also called H2M11683N) VH: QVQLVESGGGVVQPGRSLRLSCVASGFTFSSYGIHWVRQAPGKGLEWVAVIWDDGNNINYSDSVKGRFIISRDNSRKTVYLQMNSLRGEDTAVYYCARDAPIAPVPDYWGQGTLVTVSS VL: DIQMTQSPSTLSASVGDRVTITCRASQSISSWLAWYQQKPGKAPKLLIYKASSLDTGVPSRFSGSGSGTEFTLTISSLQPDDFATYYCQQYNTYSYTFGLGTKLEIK here?
1
